Target: human α2C-adrenoceptor (Homo sapiens)
Construct: expressed in transfected cells; host or cells: COS-1 cells
Assay: α2C-Adrenoceptor binding experiment ([3H] MK912 displacement, crude membrane sample)
Conditions: membranes of human α2C-adrenoceptor expressing COS-1 cells; [3H] MK912 0.08 nM; 25° C., 60 minutes; read-out: Ability to Inhibit (IC50, nM) α 2C
Assay Metric: log10 IC50 (log10 of the value in nM)
Hello, just confirming the data are log10 of IC50 with units of nM.

N#CC(CCCN1CCc2oc3ccc(Cl)cc3c2C1)(c1ccccc1)c1ccccc1 = 2.31
N#CC(CCCN1CCc2sc3ccccc3c2C1)(c1ccccc1)c1ccccc1 = 2.48
COC(=O)C(CCCN1CCc2oc3ccccc3c2C1)(c1ccc(F)cc1)c1ccc(F)cc1 = 1.45
N#CC1(CCCN2CCc3oc4ccccc4c3C2)c2ccccc2Oc2ccccc21 = 1.08
N#CC(CCCN1CCc2[nH]c3ccccc3c2C1)(c1ccccc1)c1ccccc1 = 2.08

**Query** What log10 IC50 value was documented for this molecule, c1ccc(C(CCCN2CCc3oc4ccccc4c3C2)c2ccccc2)cc1 ?
**Result** 1.00

**Query** What log10 IC50 value was documented for this molecule, Cl.N#CC(CCCN1CCc2oc3ccccc3c2C1)(c1ccccc1)c1ccccc1 ?
**Result** 0.76

**Query** What log10 IC50 value was documented for this molecule, COc1ccc2oc3c(c2c1)CN(CCCC(C#N)(c1ccccc1)c1ccccc1)CC3 ?
**Result** 1.72

###

Molecular target: human α2C-adrenoceptor (Homo sapiens)
Construct: expressed in transfected cells; host or cells: COS-1 cells
Sequence (P18825 1-462): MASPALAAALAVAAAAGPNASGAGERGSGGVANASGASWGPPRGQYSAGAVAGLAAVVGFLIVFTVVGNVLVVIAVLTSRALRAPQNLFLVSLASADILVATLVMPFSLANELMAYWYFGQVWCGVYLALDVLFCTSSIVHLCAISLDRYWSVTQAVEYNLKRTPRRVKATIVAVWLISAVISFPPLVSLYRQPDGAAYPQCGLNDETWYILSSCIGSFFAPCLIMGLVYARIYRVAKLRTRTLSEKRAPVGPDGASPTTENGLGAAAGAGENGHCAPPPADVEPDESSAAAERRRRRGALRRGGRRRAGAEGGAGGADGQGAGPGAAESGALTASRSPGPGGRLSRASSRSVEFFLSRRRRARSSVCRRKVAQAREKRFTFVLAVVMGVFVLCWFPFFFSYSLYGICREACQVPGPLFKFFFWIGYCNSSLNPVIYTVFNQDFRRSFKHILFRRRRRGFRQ
Assay: α2C-Adrenoceptor binding experiment ([3H] MK912 displacement, crude membrane sample)
Settings: membranes of human α2C-adrenoceptor expressing COS-1 cells; [3H] MK912 0.08 nM; 25° C., 60 minutes; read-out: Ability to Inhibit (IC50, nM) α 2C
Assay Metric: IC50 (nM)
// return numeric value only (unit: nM, not printed)

Look over these answered cases.
O=C(O)C(CCCN1CCc2oc3ccccc3c2C1)(c1ccc(F)cc1)c1ccc(F)cc1 [Compound 2] = 142
Cl.N#CC(CCCN1CCc2oc3ccccc3c2C1)(c1ccc(F)cc1)c1ccc(F)cc1 [Compound 4] = 9.3
Cn1c2c(c3ccccc31)CN(CCCC(C#N)(c1ccccc1)c1ccccc1)CC2 [Compound 9] = 280

Here is another compound to look at.
**Query** What IC50 value was documented for this compound, Cl.NC(=O)C(CCCN1CCc2oc3ccccc3c2C1)(c1ccc(F)cc1)c1ccc(F)cc1 [Compound 3] ?
**Result** 5.8

###

Target: human α2A-adrenoceptor (Homo sapiens)
Construct: expressed in transfected cells; host or cells: COS-7 cells
Sequence (P08913 whole entry): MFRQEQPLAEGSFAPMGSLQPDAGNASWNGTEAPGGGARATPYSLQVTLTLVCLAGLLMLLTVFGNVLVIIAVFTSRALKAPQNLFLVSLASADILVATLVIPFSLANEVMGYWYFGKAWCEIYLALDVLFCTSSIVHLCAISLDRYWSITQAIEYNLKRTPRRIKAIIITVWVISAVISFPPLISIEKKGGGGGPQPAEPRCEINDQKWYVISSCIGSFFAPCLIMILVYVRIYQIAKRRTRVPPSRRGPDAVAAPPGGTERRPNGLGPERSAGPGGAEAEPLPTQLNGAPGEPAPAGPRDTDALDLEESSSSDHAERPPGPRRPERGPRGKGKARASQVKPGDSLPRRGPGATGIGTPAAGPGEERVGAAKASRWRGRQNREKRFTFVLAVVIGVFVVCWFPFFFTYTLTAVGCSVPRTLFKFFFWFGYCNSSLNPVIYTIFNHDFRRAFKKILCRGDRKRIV
Test: α2A-Adrenoceptor binding experiment ([3H] MK912 displacement, crude membrane sample)
Conditions: membranes of human α2A-adrenoceptor expressing COS-7 cells; [3H] MK912 1 nM; 25° C., 60 minutes; read-out: Ability to Inhibit (IC50, nM) α 2A
Assay Metric: IC50 (nM)
// return numeric value only (unit: nM, not printed)

Look over these answered cases.
N#CC(CCCN1CCc2oc3ccc(F)cc3c2C1)(c1ccccc1)c1ccccc1 = 504
COc1ccc2oc3c(c2c1)CN(CCCC(C#N)(c1ccccc1)c1ccccc1)CC3 = 563
N#CC(CCCN1CCc2oc3ccc(Cl)cc3c2C1)(c1ccccc1)c1ccccc1 = 1720
Cn1c2c(c3ccccc31)CN(CCCC(C#N)(c1ccccc1)c1ccccc1)CC2 = 4830
Cl.NC(=O)C(CCCN1CCc2oc3ccccc3c2C1)(c1ccc(F)cc1)c1ccc(F)cc1 = 204
Cl.N#CC(CCCN1CCc2oc3ccccc3c2C1)(c1ccc(F)cc1)c1ccc(F)cc1 = 136
c1ccc(C(CCCN2CCc3oc4ccccc4c3C2)c2ccccc2)cc1 = 243
N#CC(CCCN1CCc2sc3ccccc3c2C1)(c1ccccc1)c1ccccc1 = 1480
O=C(O)C(CCCN1CCc2oc3ccccc3c2C1)(c1ccc(F)cc1)c1ccc(F)cc1 = 935
COC(=O)C(CCCN1CCc2oc3ccccc3c2C1)(c1ccc(F)cc1)c1ccc(F)cc1 = 416

**Query** What IC50 value was documented for this compound, N#CC1(CCCN2CCc3oc4ccccc4c3C2)c2ccccc2Oc2ccccc21 ?
**Result** 102

**Query** What IC50 value was documented for this compound, Cl.N#CC(CCCN1CCc2oc3ccccc3c2C1)(c1ccccc1)c1ccccc1 ?
**Result** 139

**Query** What IC50 value was documented for this compound, N#CC(CCCN1CCc2[nH]c3ccccc3c2C1)(c1ccccc1)c1ccccc1 ?
**Result** 1290

These measurements were taken from patent US7601734B2.
